Target: T1, recombinant human IL-13 (human, UniProt P35225 35-146, limits assumed)
T1 construct: Bought reagent; also called wild type IL-13
T1 sequence (P35225 35-146 limits assumed): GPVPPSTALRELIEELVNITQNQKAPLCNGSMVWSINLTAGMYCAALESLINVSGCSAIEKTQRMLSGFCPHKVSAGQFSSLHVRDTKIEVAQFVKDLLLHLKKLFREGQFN
Experiment: SPR Biacore 3000, antibody captured, cytokine in solution
The entries below come with measured kon values attached.
Output spec: scalar in M⁻¹ s⁻¹, unitless text.

Recorded results for 2 binders are shown here.
binder="huB-B13 VL3 × VH3 (antibody, V domains shown, Expressed as a whole antibody, purified on Protein A; also called humanized B-B13 VL3xVH3) VH: EVQLKESGPGLVAPGGSLSITCTVSGFSLTDSSINWVRQPPGKGLEWLGMIWGDGRIDYADALKSRLSISKDSSKSQVFLEMTSLRTDDTATYYCARDGRFPYAMKFWGQGTSVTVSS VL: DIVLTQSPASLAVSLGQRATISCRASESVDSYGQSYMHWYQQKAGQPPKLLIYLASNLESGVPARFSGSGSRTDFTLTIDPVQAEDAATYYCQQNAEDSRTFGGGTKLEIK" quantitative_readout=2.14e+06
binder="huB-B13 VL2 × VH2 (antibody, V domains shown, Expressed as a whole antibody, purified on Protein A; also called humanized B-B13 VL2xVH2) VH: EVQLKESGPGLVAPGGSLSITCTVSGFSLTDSSINWVRQPPGKGLEWLGMIWGDGRIDYADALKSRLSISKDSSKSQVFLEMTSLRTDDTATYYCARDGYFPYAMDFWGQGTSVTVSS VL: DIVLTQSPASLAVSLGQRATISCRASESVDSYGNSYMHWYQQKAGQPPKLLIYLASNLESGVPARFSGSGSRTDFTLTIDPVQAEDAATYYCQQNNEDSRTFGGGTKLEIK" quantitative_readout=1.13e+06

Q: Quick one: give measured kon for huB-B13 VL3 × VH1 (antibody, V domains shown, Expressed as a whole antibody, purified on Protein A; also called humanized B-B13 VL3xVH1) VH: EVQLKESGPGLVAPGGSLSITCTVSGFSLTDSSINWVRQPPGKGLEWLGMIWGDGRIDYNDALKSRLSISKDNSKSQVFLEMNSLRTDDTATYYCARDGYFPYAMDFWGQGTSVTVSS VL: DIVLTQSPASLAVSLGQRATISCRASESVDSYGQSYMHWYQQKAGQPPKLLIYLASNLESGVPARFSGSGSRTDFTLTIDPVQAEDAATYYCQQNAEDSRTFGGGTKLEIK
A: 1.93e+06
